B1: Homeobox protein cut-like 1, residues 548 to 629; numbered along this chain, P39880 (parent)
chain: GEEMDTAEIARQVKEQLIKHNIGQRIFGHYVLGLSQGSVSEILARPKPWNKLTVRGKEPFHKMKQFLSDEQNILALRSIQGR

Variants of: B1
Assay: abundance fitness (aPCA) (normalised: wild type 0, dead -1); higher = more abundant; growth selection in yeast, the domain comes from the species named
Conditions: Homo sapiens
A collection of variants and their measured abundance fitness
propertyMeasured: abundance fitness

[[record]]
mutationcode = "E41H"
assayvalue = -0.353

[[record]]
mutationcode = "R82Q"
assayvalue = 0.172

[[record]]
mutationcode = "F60P"
assayvalue = -0.897

[[record]]
mutationcode = "M63R"
assayvalue = -1

[[record]]
mutationcode = "K51Q"
assayvalue = 0.122

[[record]]
mutationcode = "I79E"
assayvalue = -0.058

[[record]]
mutationcode = "Q71R"
assayvalue = -0.049

[[record]]
mutationcode = "Q71I"
assayvalue = -0.212

[[record]]
mutationcode = "H20I"
assayvalue = -0.601

[[record]]
mutationcode = "N72H"
assayvalue = -0.063

[[record]]
mutationcode = "A10L"
assayvalue = -0.874

[[record]]
mutationcode = "N72K"
assayvalue = -0.007

[[record]]
mutationcode = "G1K"
assayvalue = -0.035

[[record]]
mutationcode = "F60Q"
assayvalue = -0.761

[[record]]
mutationcode = "K51E"
assayvalue = 0.063

[[record]]
mutationcode = "K14D"
assayvalue = -0.343

[[record]]
mutationcode = "G33D"
assayvalue = -0.268

[[record]]
mutationcode = "I26G"
assayvalue = -0.547

[[record]]
mutationcode = "S38T"
assayvalue = -0.005

[[record]]
mutationcode = "I26N"
assayvalue = -0.261

[[record]]
mutationcode = "P59A"
assayvalue = 0.091

[[record]]
mutationcode = "F66K"
assayvalue = -0.829

[[record]]
mutationcode = "Q65G"
assayvalue = -0.232

[[record]]
mutationcode = "L74E"
assayvalue = 0.008

[[record]]
mutationcode = "R45P"
assayvalue = -0.797

[[record]]
mutationcode = "K19W"
assayvalue = -0.618

[[record]]
mutationcode = "Q65C"
assayvalue = -0.172

[[record]]
mutationcode = "V39E"
assayvalue = -0.456

[[record]]
mutationcode = "Q24T"
assayvalue = -0.069

[[record]]
mutationcode = "L74K"
assayvalue = 0.029

[[record]]
mutationcode = "G56W"
assayvalue = -0.265

[[record]]
mutationcode = "L32V"
assayvalue = -0.41

[[record]]
mutationcode = "I22G"
assayvalue = -0.86

[[record]]
mutationcode = "S35A"
assayvalue = -0.112

[[record]]
mutationcode = "P48K"
assayvalue = -0.452

[[record]]
mutationcode = "N21E"
assayvalue = -0.04

[[record]]
mutationcode = "H20F"
assayvalue = -0.029

[[record]]
mutationcode = "L74D"
assayvalue = -0.019

[[record]]
mutationcode = "H61R"
assayvalue = 0.014

[[record]]
mutationcode = "T6A"
assayvalue = -0.697

[[record]]
mutationcode = "V54Q"
assayvalue = 0.064

[[record]]
mutationcode = "R25M"
assayvalue = -0.079

[[record]]
mutationcode = "I22D"
assayvalue = -0.941

[[record]]
mutationcode = "I26H"
assayvalue = -0.056

[[record]]
mutationcode = "E3L"
assayvalue = -0.107

[[record]]
mutationcode = "E58F"
assayvalue = -0.416

[[record]]
mutationcode = "E58K"
assayvalue = -0.23

[[record]]
mutationcode = "L52T"
assayvalue = -0.99

[[record]]
mutationcode = "H61W"
assayvalue = -0.03

[[record]]
mutationcode = "I79D"
assayvalue = -0.233

[[record]]
mutationcode = "S35N"
assayvalue = -0.081

[[record]]
mutationcode = "T53Q"
assayvalue = -0.369

[[record]]
mutationcode = "I18V"
assayvalue = 0

[[record]]
mutationcode = "G1N"
assayvalue = -0.012

[[record]]
mutationcode = "K51T"
assayvalue = 0.011

[[record]]
mutationcode = "G33R"
assayvalue = -0.351

[[record]]
mutationcode = "H61L"
assayvalue = 0.071

[[record]]
mutationcode = "R55K"
assayvalue = 0.066

[[record]]
mutationcode = "N21Y"
assayvalue = -0.469

[[record]]
mutationcode = "E3V"
assayvalue = -0.098

[[record]]
mutationcode = "K64H"
assayvalue = -0.216

[[record]]
mutationcode = "Q80L"
assayvalue = -0.126

[[record]]
mutationcode = "K51F"
assayvalue = -0.098

[[record]]
mutationcode = "T53S"
assayvalue = 0.049

[[record]]
mutationcode = "P46W"
assayvalue = -0.356

[[record]]
mutationcode = "I18W"
assayvalue = -0.13

[[record]]
mutationcode = "K57C"
assayvalue = -0.393

[[record]]
mutationcode = "G1H"
assayvalue = -0.289

[[record]]
mutationcode = "K14R"
assayvalue = -0.111

[[record]]
mutationcode = "P46R"
assayvalue = -0.925

[[record]]
mutationcode = "Q24R"
assayvalue = -0.159

[[record]]
mutationcode = "E41M"
assayvalue = -0.377

[[record]]
mutationcode = "Y30W"
assayvalue = -0.184

[[record]]
mutationcode = "N21T"
assayvalue = -0.305

[[record]]
mutationcode = "M63E"
assayvalue = -0.872

[[record]]
mutationcode = "N50L"
assayvalue = -0.424

[[record]]
mutationcode = "H29P"
assayvalue = -0.621

[[record]]
mutationcode = "K19D"
assayvalue = -0.344

[[record]]
mutationcode = "P59E"
assayvalue = 0.101

[[record]]
mutationcode = "P46K"
assayvalue = -0.938

[[record]]
mutationcode = "H29D"
assayvalue = -0.036

[[record]]
mutationcode = "K47Q"
assayvalue = 0.03

[[record]]
mutationcode = "R25T"
assayvalue = 0.036

[[record]]
mutationcode = "K14E"
assayvalue = -0.282

[[record]]
mutationcode = "I42T"
assayvalue = -0.375

[[record]]
mutationcode = "I42K"
assayvalue = -0.747

[[record]]
mutationcode = "I18L"
assayvalue = -0.031

[[record]]
mutationcode = "K51Y"
assayvalue = -0.195

[[record]]
mutationcode = "G23T"
assayvalue = -0.013

[[record]]
mutationcode = "L32C"
assayvalue = -0.281

[[record]]
mutationcode = "G28C"
assayvalue = -0.223

